Just for reference, PubChem BioAssay AID1259407 is where these values come from.

test system: CCRIS mutagenicity, Ames/micronucleus/aberration tests; test: CCRIS mutagenicity studies; settings: Test System: AMES SALMONELLA TYPHIMURIUM; Strain/Indicator: TA102; Metabolic Activation: NONE; Method: STANDARD PLATE
The source made the active and inactive calls. How the calls were made is not given here.
Form entry, call: pick from active, inactive

Could you please tell me the result logged for `CCC(C)(C)c1cc(-n2nc3ccccc3n2)c(O)c(C(C)(C)CC)c1` in this assay?
inactive

====

test system: CCRIS mutagenicity, Ames/micronucleus/aberration tests; experiment: CCRIS mutagenicity studies; conditions: Test System: MOUSE LYMPHOMA; Strain/Indicator: L5178Y (TK+/TK-); Metabolic Activation: RAT, LIVER, S-9, AROCLOR 1254; Method: SUSPENSION/PLATE
The source made the active and inactive calls. No rule for the calls is given here.
Choose one outcome from this list and give only that: active, inactive

In [3]: df
Out[3]:
                                 smiles_str     label
0                         O=C(O)/C=C/C(=O)O    active
1  CC(C)C1=CC2=CC[C@@H]3[C@](C)(CCC[C@@]3(C)C(=O)O)[C@H]2CC1  inactive
2                                CN(C)CCCCl    active
3                    CNC(=O)Oc1ccccc1OC(C)C    active
4                                  Nc1nccs1    active
5                             c1ccc2scnc2c1  inactive

Would you kindly look at the next entry?
Please indicate how the test categorized `O=C1c2ccccc2CCc2ccccc21` .
inactive
